- EXPERIMENTAL TARGET: D(1A) dopamine receptor (Homo sapiens)
- TEST SUMMARY: D1 CRE-luciferase signal change, two-sided – cell-based, HEK293 D1, dopamine EC30, D1 allosteric modulator project, primary screen (AID 641)
- MEASUREMENT CONTEXT: dopamine EC30 potentiation, at 10 µM, actives deviate in either direction
About 3,400 (5.9%) of roughly 58,000 compounds were called active.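 The calls were made as follows: active = luminescence count or its row- and column-corrected plate score outside the 99.7% band of the plate's sample wells, on either side; inactive = the rest.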 This excerpt belongs to a sample that is enriched for actives.
Outcome codes: active, inactive

>>> classification("O=S(=O)(c1cccs1)N1CCc2ccccc2C1")
"active"
>>> classification("CCOc1ccc(NC(=O)Nc2cc(C)on2)cc1")
"inactive"
>>> classification("Cc1ccc(C)c(NC(=O)CSc2nnc(Cc3cccn3C)n2-c2ccc(F)cc2)c1")
"inactive"
>>> classification("O=C(C1CCN(S(=O)(=O)c2cccs2)CC1)N1CCCCCC1")
"inactive"
>>> classification("N#Cc1nc(Cc2ccccc2)oc1NCCc1ccccc1")
"active"
>>> classification("Cc1ccc(-n2nc3c(c2NC(=O)CCC2CCCCC2)CS(=O)C3)cc1 (centres undefined)")
"inactive"
>>> classification("Cc1cccc(NC(=O)C2CCN(S(=O)(=O)c3cccc4cccnc34)CC2)c1")
"inactive"
>>> classification("Cc1cc(C(=O)O)c(S(C)(=O)=O)s1")
"inactive"
>>> classification("CCOc1ccc(Nc2oc(Cc3ccccc3)nc2C#N)cc1")
"active"
>>> classification("Cc1nnc(NC(=O)CSc2nccn2-c2cccc(C)c2C)s1")
"inactive"
>>> classification("CCCOC(=O)CC1C(=O)NCCN1Cc1ccc(F)cc1 (centres undefined)")
"inactive"
>>> classification("Cn1c(-c2ccc(C(=O)c3ccccc3)s2)nc2ccccc21")
"inactive"
>>> classification("N#Cc1nc(Cc2cccc3ccccc23)oc1NCc1ccc2c(c1)OCO2")
"inactive"
>>> classification("CC1(C)CC(=O)C=C(NCCCNC2CCCCC2)C1")
"inactive"
>>> classification("Cc1cc(C(=O)N2CCN(c3ccccn3)CC2)c(C)o1")
"inactive"
>>> classification("COc1ccc(CCNC(=O)c2ccco2)cc1")
"inactive"
>>> classification("COc1ccc(S(=O)(=O)N2CCC(C(=O)N3CCOCC3)CC2)cc1OC")
"inactive"
>>> classification("N#Cc1nc(-c2ccc(OCc3ccccc3)cc2)oc1NCCCN1CCOCC1")
"inactive"
>>> classification("COc1ccc(CC(=O)Nc2ccc(-c3nnc(-c4ccccc4)o3)cc2)cc1")
"inactive"
>>> classification("O=S(=O)(c1cccs1)N1CCN(Cc2ccccc2)CC1")
"inactive"
>>> classification("CCOc1cc(/C=N/O)cc(Br)c1OC")
"active"
>>> classification("O=c1/c(=C/c2ccc(CNS(=O)(=O)c3ccccc3)o2)sc2n1CCN=2")
"inactive"
>>> classification("COCCn1nnnc1CN1CCC(NC(=O)Nc2cccc(OC)c2)CC1")
"inactive"
>>> classification("O=C(Nc1c(C(=O)N2CCCCC2)cnn1-c1ccccc1)c1ccco1")
"inactive"

Source: PubChem BioAssay AID641
